Each record here notes measured soluble fraction (log2).
# protocol details: soluble fraction after stress (log2 fold change); higher = more stays soluble; pooled small domains, quantitative proteomics;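 further: 20 min heating vs room temperature control held 20 min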
# conditions: stress: 75 degC
Simply state the number, no unit and no words.

Consider the reported soluble fraction (log2) for these sequences:
>>> measurement("HMLTGNTAKLFAHLVEVMNPKEFVKINRQTVIVEAGIPRGSVGAAIAKLLETGHLIANASGAYKLT")
0.278
>>> measurement("HMEDTFEYPVSVNGKLRFKIELPVSMEKDEIRNIVLNDERAKKWLATGTLTNLIVVPNRIINIVIK")
-0.528
>>> measurement("HMGGPEPIPAQIREGDTVYVTKFKQLGLVLKISEDTAEVQIGPLRATVAKTELSKVDATATEHR")
-0.0822
>>> measurement("HMRGDEDTGVWPTPMKRAYIDSLLKGYPTGVTMIVKPPGASHTTKWMILDGANRARALRDFMNDEFMI")
-0.0871
>>> measurement("HMKPAFTPYVVKVTADVLNVRSGPGTNYGITTKVKKGEAYTIVEEKNGWGKLKSGAGWISLEYTVK")
-1.09

Form field soluble fraction (log2), entry "HMQISDDSELIKIVDNILANSQKQIDDYHNGKTNLFGFFVGQVMKETKGKANPVKVNEILKDKL" : -0.00828

# credit: the domain aggregation screens of Martell et al. (2025)
